Reference for the values: ChEMBL document CHEMBL2218924

target: Mitogen-activated protein kinase kinase kinase kinase 2 (Homo sapiens) (UniProt Q12851); settings: at 10 µM
Sequence (Q12851 whole entry): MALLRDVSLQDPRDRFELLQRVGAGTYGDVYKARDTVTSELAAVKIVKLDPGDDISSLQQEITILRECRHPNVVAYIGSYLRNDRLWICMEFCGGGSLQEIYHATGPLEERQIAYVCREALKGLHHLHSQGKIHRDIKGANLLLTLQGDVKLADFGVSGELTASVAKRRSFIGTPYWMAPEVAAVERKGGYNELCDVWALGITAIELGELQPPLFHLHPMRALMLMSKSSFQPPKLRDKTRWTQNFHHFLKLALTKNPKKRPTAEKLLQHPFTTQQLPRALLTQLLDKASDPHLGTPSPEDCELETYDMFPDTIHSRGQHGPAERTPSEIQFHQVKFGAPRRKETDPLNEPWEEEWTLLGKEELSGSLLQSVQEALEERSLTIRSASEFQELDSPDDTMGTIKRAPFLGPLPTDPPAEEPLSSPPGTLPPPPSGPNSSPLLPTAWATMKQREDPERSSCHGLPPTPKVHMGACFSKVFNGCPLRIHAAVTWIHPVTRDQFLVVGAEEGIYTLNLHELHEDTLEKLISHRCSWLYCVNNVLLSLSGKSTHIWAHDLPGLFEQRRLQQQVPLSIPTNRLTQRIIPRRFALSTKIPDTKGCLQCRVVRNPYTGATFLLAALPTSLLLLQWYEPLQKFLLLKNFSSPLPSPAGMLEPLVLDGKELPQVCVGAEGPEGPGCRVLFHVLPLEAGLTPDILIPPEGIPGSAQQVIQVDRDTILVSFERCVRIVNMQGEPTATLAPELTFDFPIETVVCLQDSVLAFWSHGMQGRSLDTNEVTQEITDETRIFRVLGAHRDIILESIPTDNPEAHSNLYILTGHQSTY
residual activity less than 40% is t; residual activity greater than or equal to 40% is f.

# testSmiles, studyTarget, labelClass
measured = [
    ("Oc1n[nH]c2nnc(-c3c(-c4ccccc4)nn4ccccc34)cc12", "Mitogen-activated protein kinase kinase kinase kinase 2 (Homo sapiens) (UniProt Q12851)", "f"),
    ("O=Nc1c(-c2c(O)[nH]c3ccccc23)[nH]c2ccccc12", "Mitogen-activated protein kinase kinase kinase kinase 2 (Homo sapiens) (UniProt Q12851)", "t"),
    ("c1ccc(-c2n[nH]c3c2oc2ccccc23)cc1", "Mitogen-activated protein kinase kinase kinase kinase 2 (Homo sapiens) (UniProt Q12851)", "t"),
    ("O=C1Nc2ccc(Br)cc2/C1=C\\c1cc2c([nH]1)CCCC2", "Mitogen-activated protein kinase kinase kinase kinase 2 (Homo sapiens) (UniProt Q12851)", "f"),
    ("O=C1NC(=O)c2cc(Nc3ccc(F)cc3)c(Nc3ccc(F)cc3)cc21", "Mitogen-activated protein kinase kinase kinase kinase 2 (Homo sapiens) (UniProt Q12851)", "f"),
]
